experimental-target: T1, human nerve growth factor (human, UniProt P01138 122-241)
T1 construct: Immobilised on CM5 chips for BIAcore, soluble in neuron survival assays; also called human NGF; hNGF
T1 sequence (P01138 122-241 limits assumed): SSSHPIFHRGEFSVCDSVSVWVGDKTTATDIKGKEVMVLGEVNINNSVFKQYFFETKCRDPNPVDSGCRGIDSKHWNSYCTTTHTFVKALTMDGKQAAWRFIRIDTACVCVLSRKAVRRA
assay-summary: BIAcore SPR screen, Fab over immobilised human NGF
measured-parameter: koff (s⁻¹)
A number alone suffices; assume s⁻¹.

Recorded koff, per entry:
binder	measured-parameter	value-units	test-value
8L2-6D5 Fab with CDR H3 mutation Y106T (Fab, V domains shown, See note of m8) VH: QVQLQESGPGLVKPSETLSLTCTVSGFSLIGYDINWIRQPPGKGLEWIGMIWGDGTTDYNSALKSRVTISKDTSKNQFSLKLSSVTAADTAVYYCARGGYYYGTSTYFDYWGQGTLVTVS VL: DIQMTQSPSSLSASVGDRVTITCRASQDISNHLNWYQQKPGKAPKLLIYYISRFHSGVPSRFSGSGSGTDFTFTISSLQPEDIATYYCQQSKTLPYTFGQGTKLEIKR	koff	s⁻¹	0.002
8L2-6D5 Fab with CDR H3 mutation G103A (Fab, V domains shown, A103 is the E3 residue, so it is kept; See note of m8) VH: QVQLQESGPGLVKPSETLSLTCTVSGFSLIGYDINWIRQPPGKGLEWIGMIWGDGTTDYNSALKSRVTISKDTSKNQFSLKLSSVTAADTAVYYCARGGYYYATSYYFDYWGQGTLVTVS VL: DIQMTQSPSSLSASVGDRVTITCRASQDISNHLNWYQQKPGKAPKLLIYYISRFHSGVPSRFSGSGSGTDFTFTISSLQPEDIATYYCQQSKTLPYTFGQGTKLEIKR	koff	s⁻¹	0.00016
8L2-6D5 Fab with CDR H3 mutation Y106R (Fab, V domains shown, See note of m8) VH: QVQLQESGPGLVKPSETLSLTCTVSGFSLIGYDINWIRQPPGKGLEWIGMIWGDGTTDYNSALKSRVTISKDTSKNQFSLKLSSVTAADTAVYYCARGGYYYGTSRYFDYWGQGTLVTVS VL: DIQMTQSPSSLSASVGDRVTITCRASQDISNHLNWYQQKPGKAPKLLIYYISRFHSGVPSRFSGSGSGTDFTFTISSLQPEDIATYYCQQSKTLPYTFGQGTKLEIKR	koff	s⁻¹	0.0016
8L2-6D5 Fab with CDR H3 mutation Y110K (Fab, V domains shown, See note of m8) VH: QVQLQESGPGLVKPSETLSLTCTVSGFSLIGYDINWIRQPPGKGLEWIGMIWGDGTTDYNSALKSRVTISKDTSKNQFSLKLSSVTAADTAVYYCARGGYYYGTSYYFDKWGQGTLVTVS VL: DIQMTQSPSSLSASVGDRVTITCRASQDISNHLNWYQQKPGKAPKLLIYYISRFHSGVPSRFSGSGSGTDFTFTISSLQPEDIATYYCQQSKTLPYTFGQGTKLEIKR	koff	s⁻¹	0.0014
8L2-6D5 (CDR-grafted antibody with framework mutation V71K) (Fab, V domains shown, Fab (human IgG2 CH1 + C-kappa, His tag at heavy chain C terminus); also called 8L2-6D5 Fab; 8L2-6D5 (control)) VH: QVQLQESGPGLVKPSETLSLTCTVSGFSLIGYDINWIRQPPGKGLEWIGMIWGDGTTDYNSALKSRVTISKDTSKNQFSLKLSSVTAADTAVYYCARGGYYYGTSYYFDYWGQGTLVTVS VL: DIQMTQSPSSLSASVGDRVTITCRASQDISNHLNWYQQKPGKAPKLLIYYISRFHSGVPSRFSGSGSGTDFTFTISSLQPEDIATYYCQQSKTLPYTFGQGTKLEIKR	koff	s⁻¹	0.001
8L2-6D5 Fab with CDR H3 mutation Y106M (Fab, V domains shown, See note of m8) VH: QVQLQESGPGLVKPSETLSLTCTVSGFSLIGYDINWIRQPPGKGLEWIGMIWGDGTTDYNSALKSRVTISKDTSKNQFSLKLSSVTAADTAVYYCARGGYYYGTSMYFDYWGQGTLVTVS VL: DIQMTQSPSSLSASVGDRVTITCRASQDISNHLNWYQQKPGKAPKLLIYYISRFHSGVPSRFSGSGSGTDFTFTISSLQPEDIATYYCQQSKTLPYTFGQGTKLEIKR	koff	s⁻¹	0.0027

Report koff for 8L2-6D5 Fab with CDR H3 mutation Y110T (Fab, V domains shown, See note of m8) VH: QVQLQESGPGLVKPSETLSLTCTVSGFSLIGYDINWIRQPPGKGLEWIGMIWGDGTTDYNSALKSRVTISKDTSKNQFSLKLSSVTAADTAVYYCARGGYYYGTSYYFDTWGQGTLVTVS VL: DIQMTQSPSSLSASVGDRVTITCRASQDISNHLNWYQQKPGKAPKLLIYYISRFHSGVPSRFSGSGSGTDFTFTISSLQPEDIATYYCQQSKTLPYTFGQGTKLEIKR please. 0.0017

Can you check 8L2-6D5 Fab with CDR H3 mutation D109N (Fab, V domains shown, See note of m8) VH: QVQLQESGPGLVKPSETLSLTCTVSGFSLIGYDINWIRQPPGKGLEWIGMIWGDGTTDYNSALKSRVTISKDTSKNQFSLKLSSVTAADTAVYYCARGGYYYGTSYYFNYWGQGTLVTVS VL: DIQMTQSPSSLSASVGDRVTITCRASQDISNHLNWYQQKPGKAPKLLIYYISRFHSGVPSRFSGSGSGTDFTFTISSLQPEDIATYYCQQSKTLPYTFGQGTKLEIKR next? 0.0015

Ref: patent US20170088610A1
